Biological target: AChE (Homo sapiens, UniProt P22303)
Sequence (P22303 32-614): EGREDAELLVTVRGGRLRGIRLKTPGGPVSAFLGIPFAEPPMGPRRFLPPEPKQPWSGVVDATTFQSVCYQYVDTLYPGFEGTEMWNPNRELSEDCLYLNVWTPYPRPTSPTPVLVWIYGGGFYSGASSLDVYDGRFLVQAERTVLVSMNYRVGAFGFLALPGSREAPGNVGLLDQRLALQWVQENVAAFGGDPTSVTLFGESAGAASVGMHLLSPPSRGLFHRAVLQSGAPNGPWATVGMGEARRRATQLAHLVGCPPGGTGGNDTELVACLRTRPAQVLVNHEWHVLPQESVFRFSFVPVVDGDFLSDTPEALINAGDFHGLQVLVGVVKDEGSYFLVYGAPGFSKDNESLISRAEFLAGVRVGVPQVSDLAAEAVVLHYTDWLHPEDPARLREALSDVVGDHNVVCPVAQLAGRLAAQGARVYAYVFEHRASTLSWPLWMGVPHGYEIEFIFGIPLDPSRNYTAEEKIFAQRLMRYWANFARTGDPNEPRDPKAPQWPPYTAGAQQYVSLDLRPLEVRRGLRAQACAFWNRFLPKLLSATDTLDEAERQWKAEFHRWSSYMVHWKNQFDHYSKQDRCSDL
readout.type: IC50 (µM)
State the answer as a number, implicitly in µM.

Checklist item: IC50 tested on AChE (Homo sapiens, UniProt P22303), entry `O=C1N[C@@H](Cc2ccccc2)C(=O)N[C@H]1Cc1ccccc1` , value? 3.4
